Tested on: HT-29
Assay: SRB colorimetric assay of cell growth and viability, HT-29
Type: cell-based, human
Details: HT-29; 48 hours exposure; read-out: LC50 HT-29
Where a SMILES comes first, the peptide text is derived from it. Bridges are numbered along the chain shown (N, C = ends). [ ]: non-standard residue; d: D form. The star is where a group is joined. d(aIle) = CC[C@H](C)[C@@H](N)C(=O)O; d(aThr) = C[C@@H](O)[C@@H](N)C(=O)O; hCha = N[C@@H](CCC1CCCCC1)C(=O)O; Hexanoyl(5-Me) = CC(C)CCCC(=O)*; Phg = N[C@H](C(=O)O)c1ccccc1; Orn = NCCC[C@H](N)C(=O)O; Dhb = C/C=C(\N)C(=O)O
ATTRIBUTE MEASURED: log10 CC50 (log10 of the value in µM)
Base-10 log of CC50, unit µM.

// below: answered molecules
[2H]C([2H])([2H])C([2H])(C([2H])([2H])[2H])[C@]([2H])(NC(=O)[C@@H](NC(=O)[C@H](NC(=O)CCCC(C)C)C(C)C)[C@@H](C)O)C(=O)N[C@@H](C(=O)N1CCC[C@@H]1C(=O)N[C@@H](CCCN)C(=O)N[C@@H](C(=O)N[C@H]1C(=O)N[C@H]([C@@H](C)CC)C(=O)N[C@H](C(C)C)C(=O)N[C@@H](Cc2ccccc2)C(=O)N/C(=C\C)C(=O)N[C@@H](C(C)C)C(=O)O[C@@H]1C)[C@@H](C)CC)C(C)C [Compound 100, [L-Val-d8^11]-KF]
0.07
C/C=C1\NC(=O)[C@H](Cc2cccc(Cl)c2)NC(=O)[C@@H](C(C)C)NC(=O)[C@@H]([C@@H](C)CC)NC(=O)[C@H](NC(=O)[C@H](NC(=O)[C@H](CCCN)NC(=O)[C@H]2CCCN2C(=O)[C@H](NC(=O)[C@@H](NC(=O)[C@@H](NC(=O)[C@H](NC(=O)CCCC(C)C)C(C)C)[C@@H](C)O)C(C)C)C(C)C)[C@@H](C)CC)[C@@H](C)OC(=O)[C@H](C(C)C)NC1=O [Compound 82, [Phe(3-Cl)^3]-KF]
-0.73
C/C=C1\NC(=O)[C@H](Cc2ccccc2)NC(=O)[C@@H](C(C)C)NC(=O)[C@@H]([C@@H](C)CC)NC(=O)[C@H](NC(=O)[C@H](NC(=O)[C@H](CCCN)NC(=O)[C@H]2CCCN2C(=O)[C@H](NC(=O)[C@@H](NC(=O)[C@H](Cc2ccccc2)NC(=O)[C@H](NC(=O)CCCC(C)C)C(C)C)C(C)C)C(C)C)[C@@H](C)CC)[C@@H](C)OC(=O)[C@H](C(C)C)NC1=O [Compound 114, [Phe^12]-KF] ({Hexanoyl(5-Me)}-[dV]FV[dV][dP][Orn][d(aIle)][d(aThr)][d(aIle)][dV]F[Dhb]V; ester 8-C)
-0.16

(Q) // returns reported log10 CC50 for input C/C=C1\NC(=O)[C@H](Cc2ccccc2)NC(=O)[C@@H](C(C)C)NC(=O)[C@@H]([C@@H](C)CC)NC(=O)[C@H](NC(=O)[C@H](NC(=O)[C@H](CCCNC(=O)CCCC[C@@H]2SC[C@@H]3NC(=O)N[C@@H]32)NC(=O)[C@H]2CCCN2C(=O)[C@H](NC(=O)[C@@H](NC(=O)[C@@H](NC(=O)[C@H](NC(=O)CCCC(C)C)C(C)C)[C@@H](C)O)C(C)C)C(C)C)[C@@H](C)CC)[C@@H](C)OC(=O)[C@H](C(C)C)NC1=O [Compound 99, [Orn(Biot)^8]-Kahalalide F]
(A) -0.33

(Q) Cool, now C/C=C1\NC(=O)[C@H](c2ccccc2)NC(=O)[C@@H](C(C)C)NC(=O)[C@@H]([C@@H](C)CC)NC(=O)[C@H](NC(=O)[C@H](NC(=O)[C@H](CCCN)NC(=O)[C@H]2CCCN2C(=O)[C@H](NC(=O)[C@@H](NC(=O)[C@@H](NC(=O)[C@H](NC(=O)CCCC(C)C)C(C)C)[C@@H](C)O)C(C)C)C(C)C)[C@@H](C)CC)[C@@H](C)OC(=O)[C@H](C(C)C)NC1=O [Compound 87, [Phg^3]-KF] ({Hexanoyl(5-Me)}-[dV]TV[dV][dP][Orn][d(aIle)][d(aThr)][d(aIle)][dV][Phg][Dhb]V; ester 8-C)
(A) 0.28

(Q) Cool, now C/C=C1\NC(=O)[C@H](Cc2ccccc2)NC(=O)[C@@H](C(C)C)NC(=O)[C@@H]([C@@H](C)CC)NC(=O)[C@H](NC(=O)[C@H](NC(=O)[C@H](CCCN)NC(=O)[C@H]2CCCN2C(=O)[C@H](NC(=O)[C@@H](NC(=O)[C@H](CCC(N)=O)NC(=O)[C@H](NC(=O)CCCC(C)C)C(C)C)C(C)C)C(C)C)[C@@H](C)CC)[C@@H](C)OC(=O)[C@H](C(C)C)NC1=O [Compound 119, [Gln^12]-KF] ({Hexanoyl(5-Me)}-[dV]QV[dV][dP][Orn][d(aIle)][d(aThr)][d(aIle)][dV]F[Dhb]V; ester 8-C)
(A) 0.30

(Q) Cool, now C/C=C1\NC(=O)[C@H](Cc2ccccc2)NC(=O)[C@@H](C(C)C)NC(=O)[C@@H]([C@@H](C)CC)NC(=O)[C@H](NC(=O)[C@H](NC(=O)[C@H](CCCN)NC(=O)[C@H]2CCCN2C(=O)[C@H](NC(=O)[C@@H](NC(=O)CNC(=O)[C@H](NC(=O)CCCC(C)C)C(C)C)C(C)C)C(C)C)[C@@H](C)CC)[C@@H](C)OC(=O)[C@H](C(C)C)NC1=O [Compound 111, [Gly^12]-KF] ({Hexanoyl(5-Me)}-[dV]GV[dV][dP][Orn][d(aIle)][d(aThr)][d(aIle)][dV]F[Dhb]V; ester 8-C)
(A) 0.84

(Q) Cool, now C/C=C1\NC(=O)[C@H](CCC2CCCCC2)NC(=O)[C@@H](C(C)C)NC(=O)[C@@H]([C@@H](C)CC)NC(=O)[C@H](NC(=O)[C@H](NC(=O)[C@H](CCCN)NC(=O)[C@H]2CCCN2C(=O)[C@H](NC(=O)[C@@H](NC(=O)[C@@H](NC(=O)[C@H](NC(=O)CCCC(C)C)C(C)C)[C@@H](C)O)C(C)C)C(C)C)[C@@H](C)CC)[C@@H](C)OC(=O)[C@H](C(C)C)NC1=O [Compound 63] ({Hexanoyl(5-Me)}-[dV]TV[dV][dP][Orn][d(aIle)][d(aThr)][d(aIle)][dV][hCha][Dhb]V; ester 8-C)
(A) 0.05

* * *

Test system: HT-29
Assay: SRB colorimetric assay of cell growth and viability, HT-29
Type: cell-based, human
Details: 48 hours exposure
Where a SMILES comes first, the peptide text is derived from it. Bridges are numbered along the chain shown (N, C = ends). [ ]: non-standard residue; d: D form. The star is where a group is joined. d(aIle) = CC[C@H](C)[C@@H](N)C(=O)O; d(aThr) = C[C@@H](O)[C@@H](N)C(=O)O; Hexanoyl(5-Me) = CC(C)CCCC(=O)*; Dhb = C/C=C(\N)C(=O)O
Documented TGI HT-29 across a set of compounds
Record the value in Molar, omitting the unit from your answer.

// below: answered compounds
C/C=C1\NC(=O)[C@H](Cc2ccccc2)NC(=O)[C@@H](C(C)C)NC(=O)[C@@H]([C@@H](C)CC)NC(=O)[C@H](NC(=O)[C@H](NC(=O)[C@H](CCCN)NC(=O)[C@H]2CCCN2C(=O)[C@H](NC(=O)[C@@H](NC(=O)[C@@H](NC(=O)[C@H](NC(=O)CCCCCCCCCC)C(C)C)[C@@H](C)O)C(C)C)C(C)C)[C@@H](C)CC)[C@@H](C)OC(=O)[C@H](C(C)C)NC1=O [Compound 15, [Und^14]-KF]
2.70E−07
C/C=C1\NC(=O)[C@H](Cc2ccccc2)NC(=O)[C@@H](C(C)C)NC(=O)[C@@H]([C@@H](C)CC)NC(=O)[C@H](NC(=O)[C@H](NC(=O)[C@H](CCCN)NC(=O)[C@H]2CCCN2C(=O)[C@H](NC(=O)[C@@H](NC(=O)[C@@H](NC(=O)[C@H](NC(=O)c2ccc(C)cc2)C(C)C)[C@@H](C)O)C(C)C)C(C)C)[C@@H](C)CC)[C@@H](C)OC(=O)[C@H](C(C)C)NC1=O [Compound 19, [p-MeBza^14]-KF]
1.12E−06

Turning now to a further record.
(Q) Record lookup: for HT-29, what TGI HT-29 belongs to C/C=C1\NC(=O)[C@H](Cc2ccccc2)NC(=O)[C@@H](C(C)C)NC(=O)[C@@H]([C@@H](C)CC)NC(=O)[C@H](NC(=O)[C@H](NC(=O)[C@H](CCC(=O)O)NC(=O)[C@H]2CCCN2C(=O)[C@H](NC(=O)[C@@H](NC(=O)[C@@H](NC(=O)[C@H](NC(=O)CCCC(C)C)C(C)C)[C@@H](C)O)C(C)C)C(C)C)[C@@H](C)CC)[C@@H](C)OC(=O)[C@H](C(C)C)NC1=O [Compound 4, [Glu^8]-KF] ({Hexanoyl(5-Me)}-[dV]TV[dV][dP]E[d(aIle)][d(aThr)][d(aIle)][dV]F[Dhb]V; ester 8-C) ?
(A) 2.00E−06

These entries and their values trace back to patent US20070117743A1.
